Molecular target: Hematopoietic prostaglandin D synthase (Homo sapiens, UniProt O60760)
Sequence (O60760 whole entry): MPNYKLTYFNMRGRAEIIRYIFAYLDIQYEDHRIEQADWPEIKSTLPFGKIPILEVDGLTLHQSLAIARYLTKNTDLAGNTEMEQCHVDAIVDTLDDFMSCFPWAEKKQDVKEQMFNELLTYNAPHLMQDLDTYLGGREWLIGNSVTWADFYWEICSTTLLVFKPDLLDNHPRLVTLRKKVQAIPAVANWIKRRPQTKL
Experiment: Binding affinity to human HPGDS expressed in Escherichia coli by isothermal titration calorimetry
Kd: recorded values
Could you write the number and then its unit?

[
  {
    "structureAsSmiles": "O=C(NC1CCN(CC(F)(F)F)CC1)c1ccc(-c2cccc(F)c2)nc1",
    "Kd": "20 nM"
  }
]

Give the measured Kd for "NC(=O)c1ccc(-c2cccc(F)c2)nc1"
800 nM

Give the measured Kd for "CC(C)(O)c1nc(-c2ccc(CNC(=O)c3cnc(-c4ccccn4)nc3)cc2)no1"
35 nM

Give the measured Kd for "O=C(O)c1cnn(-c2ccccc2)c1"
140000 nM

Give the measured Kd for "COc1cccc(-c2ccc(C(=O)NC3CCN(CC(F)(F)F)CC3)cn2)c1"
12 nM

Give the measured Kd for "c1ccc(-c2ncc(-c3cc[nH]n3)s2)cc1"
300 nM

Give the measured Kd for "CN(C)CCC(=O)Nc1cncc(-c2cccc3[nH]ccc23)c1"
210 nM
